# Assay info: Biodistribution in Jurkat tumor-bearing CB-17 SCID mice
# Assay type: in vivo
# Particulars: female, CB-17 SCID, mouse, in vivo, iv, total radioactivity, % iD/g Spleen
Non-standard residues stand in square brackets, D forms with d. Residues, ends and D or L forms follow the SMILES beside them. Groups on a side chain read outwards from the residue. *: point of attachment. DOTA = O=C(O)CN1CCN(CC(=O)O)CCN(CC(=O)*)CCN(CC(=O)O)CC1; dTyr(3-I) = N[C@H](Cc1ccc(O)c(I)c1)C(=O)O; 2Nal = N[C@@H](Cc1ccc2ccccc2c1)C(=O)O; dNMeOrn = CN[C@H](CCCN)C(=O)O; 4Abz = Nc1ccc(C(=O)O)cc1; dDap = NC[C@@H](N)C(=O)O
Measured tissue uptake at 6 h, listed per entry for reference.

Compound	tissue uptake at 6 h
C[C@@H](NC(=O)[C@@H](CCCNC(=N)N)NC(=O)[C@@H](CN)NC(=O)CN1CCN(CC(=O)O)CCN(CC(=O)O)CCN(CC(=O)O)CC1)C(=O)Nc1ccc(C(=O)NCCC[C@@H]2C(=O)N[C@@H](CCCNC(=N)N)C(=O)N[C@@H](Cc3ccc4ccccc4c3)C(=O)NCC(=O)N[C@H](Cc3ccc(O)c(I)c3)C(=O)N2C)cc1 [CXCR4-DOTA-4 [Lu]] (cyclo([dTyr(3-I)][dNMeOrn]([4Abz-dA-dR-dDap-DOTA])R[2Nal]G))	2.68 %ID/g
C[C@@H](NC(=O)[C@@H](CCCNC(=N)N)NC(=O)[C@@H](CN)NC(=O)CN1CCN(CC(=O)O)CCN(CC(=O)O)CCN(CC(=O)O)CC1)C(=O)Nc1ccc(C(=O)NCCC[C@@H]2C(=O)N[C@@H](CCCNC(=N)N)C(=O)N[C@@H](Cc3ccc4ccccc4c3)C(=O)NCC(=O)N[C@H](Cc3ccc(O)cc3)C(=O)N2C)cc1 [CXCR4-DOTA-3 [Lu]] (cyclo([dY][dNMeOrn]([4Abz-dA-dR-dDap-DOTA])R[2Nal]G))	1.38 %ID/g
